study_system: T1, DegS M319A (residues 27–355, N-terminal His6 tag) (E. coli, UniProt P0AEE3 27-355, M319A)
T1 sequence (looked up): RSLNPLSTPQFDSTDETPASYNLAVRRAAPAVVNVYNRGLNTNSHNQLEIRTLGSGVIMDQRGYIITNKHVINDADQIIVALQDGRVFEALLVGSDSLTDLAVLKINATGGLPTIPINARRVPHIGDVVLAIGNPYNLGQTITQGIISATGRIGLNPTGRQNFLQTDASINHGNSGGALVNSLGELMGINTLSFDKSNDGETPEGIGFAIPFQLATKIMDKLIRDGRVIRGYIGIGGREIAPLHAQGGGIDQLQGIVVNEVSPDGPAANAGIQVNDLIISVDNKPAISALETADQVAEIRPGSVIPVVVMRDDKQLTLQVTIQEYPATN
protocol_notes: fluorescence polarisation
No end group written: not given here. βAla = NCCC(=O)O
reported_endpoint: Kd (nM)
Numbers only, in nM.

Ask | I'd like to know its Kd. The binder in question is {fluoresceine-βAla}-KKDNRDGNYYF [OMP peptide fluoresceine-β-alanine-KKDNRDGNYYF]
Reply | 140
